# test_name: Assay C: permeability in CACO-2 cells
# Format: in vitro ADME
# assay_context: human; Caco-2, apical to basolateral, pH 7.2
readout: Papp A→B at 2 h (×10⁻⁶ cm/s)
Respond numerically; units are ×10⁻⁶ cm/s and should not be typed.

# compound, Papp A→B at 2 h [×10⁻⁶ cm/s]
measured = [
    ("Cn1cnnc1[C@@H]1CCN(c2c(C#N)cc(C(F)(F)F)nc2-c2ccc(F)nc2)[C@H](C2CC2)C1 [Example 8]", 22),
    ("Cn1cnnc1[C@@H]1CCN(c2c(C#N)cc(C(F)(F)F)nc2-c2ccc(F)nc2)[C@@H](C2CC2)C1 [Example 1]", 17),
    ("Cn1cnnc1[C@@H]1CCN(c2c(C#N)cc(C(F)(F)F)nc2-c2cnc3nn(C(C)(C)C)cc3c2)[C@H](C2CC2)C1 [Example 7]", 2),
    ("C[C@@H]1C[C@](F)(c2nncn2C)CCN1c1c(C#N)cc(C(F)(F)F)nc1-c1ccc(F)nc1 [Example 14]", 58),
]

We next turn to a different compound, shown below.
Reported Papp A→B at 2 h for C[C@@H]1C[C@](F)(c2nncn2C)CCN1c1c(C#N)ccnc1-c1ccc(F)nc1 [Example 13] : what is it?
22

Data origin: patent US20250066329A1
